Source of measurements: paper PMC7011955

System: lung cancer A-549 cell line
Assay: CellTiter-Glo Luminescent cell viability assay, anti-proliferative activity, A-549
Type: cell-based, human
Settings: Homo sapiens, A549; 30 µM single concentration, quadruplicate; read-out: Growth inhibition % A-549
Labels assigned by inhibition at 30 µM range: bottom range (below 20%), center range (20% to below 70%), top range (70% or more)

Study these solved cases before continuing.
[
  {
    "compound": "O=C1Nc2ccc(Cl)cc2C1=NN=Cc1nccs1",
    "className": "top range"
  },
  {
    "compound": "O=C1Nc2ccc(Br)cc2C1=NNc1nc(-c2ccc(Cl)cc2)cs1 [Compound 10k]",
    "className": "top range"
  },
  {
    "compound": "Cc1ccc(-c2csc(NN=C3C(=O)Nc4ccccc43)n2)cc1 [Compound 10b]",
    "className": "center range"
  },
  {
    "compound": "O=C1Nc2ccc(Br)cc2C1=NNc1nc(-c2ccc(Br)cc2)cs1 [Compound 10l]",
    "className": "bottom range"
  },
  {
    "compound": "O=C1Nc2ccc(Cl)cc2C1=NNc1nc(-c2ccc(Br)cc2)cs1 [Compound 10h]",
    "className": "bottom range"
  },
  {
    "compound": "O=C1Nc2ccc(Br)cc2C1=NN=Cc1ccn[nH]1",
    "className": "center range"
  },
  {
    "compound": "CC(=O)c1ccc(C=NN=C2C(=O)Nc3ccc(Br)cc32)cc1",
    "className": "bottom range"
  },
  {
    "compound": "O=C1Nc2ccccc2C1=NN=Cc1ccn[nH]1",
    "className": "bottom range"
  }
]

Please find the next compound below.
Could you tell me which band `O=C1Nc2ccc(Cl)cc2C1=NN=Cc1ccn[nH]1` belongs to?
top range
